Molecular target: T1, human neutrophil elastase (HNE) (human, UniProt P08246 30-247, limits assumed); note: test concentration or dose not given here
T1 sequence (looked up): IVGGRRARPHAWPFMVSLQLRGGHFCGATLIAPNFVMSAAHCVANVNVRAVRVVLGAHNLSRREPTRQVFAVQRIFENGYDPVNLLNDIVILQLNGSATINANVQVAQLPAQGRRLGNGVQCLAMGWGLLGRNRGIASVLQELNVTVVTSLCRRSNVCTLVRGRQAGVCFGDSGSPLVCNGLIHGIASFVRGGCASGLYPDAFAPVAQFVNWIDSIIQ
Experiment: cell-based or functional assay
quantity name: % Inhibition (%)
Use % as the unit, but write only the number.

INSERT INTO assay_data (binder, value_measured) VALUES
  ('AATC11 (other, human, mature) HHHHHHEDPQGDAAQKTDTSHHDQDHPTFNKITPNLAEFAFSLYRQLAHQSNSTNIFFSPVSIATAFAMLSLGTKADTHDEILEGLNFNLTEIPEAQIHEGFQELLRTLNQPDSQLQLTTGNGLFLSEGLKLVDKFLEDVKKLYHSEAFTVNFGDTEEAKKQINDYVEKGTQGKIVDLVKELDRDTVFALVNYIFFKGKWERPFEVKDTEEEDFHVDQVTTVKVPMMKRLGMFNIQHCKKLSSWVLLMKYLGNATAIFFLPDEGKLQHLENELTHDIITKFLENEDRRSASLHLPKLSITGTYDLKSVLGQLGITKVFSNGADLSGVTEEAPLKLSKAVHKAVLTIDEKGTEAAGAMFLEAIPRQTNPEVKFNKPFVFLMIEQNTKSPLFMGKVVNPTQK', 0);

From here, focus on the item given below.
Request: Consider the binder AATE8 (other, human, mature; also called rAATE8) HHHHHHEDPQGDAAQKTDTSHHDQDHPTFNKITPNLAEFAFSLYRQLAHQSNSTNIFFSPVSIATAFAMLSLGTKADTHDEILEGLNFNLTEIPEAQIHEGFQELLRTLNQPDSQLQLTTGNGLFLSEGLKLVDKFLEDVKKLYHSEAFTVNFGDTEEAKKQINDYVEKGTQGKIVDLVKELDRDTVFALVNYIFFKGKWERPFEVKDTEEEDFHVDQVTTVKVPMMKRLGMFNIQHCKKLSSWVLLMKYLGNATAIFFLPDEGKLQHLENELTHDIITKFLENEDRRSASLHLPKLSITGTYDLKSVLGQLGITKVFSNGADLSGVTEEAPLKLSKAVHKAVLTIDEKGTEAAGAMFLEALQRAIPPEVKFNKPFVFLMIEQNTKSPLFMGKVVNPTQK and give its recorded % Inhibition.
Result: 0
